# growth per entry
system: T-47D breast; test: NCI-60 one-dose screen, 48 h (100 = growth as untreated, 0 = no growth, -100 = all killed); conditions: 10 µM unless noted
Compounds without any hit were thinned out: in the full panel of roughly 83,000, 20% have a hit.
test_readout: growth (%)

COc1cc(Nc2cn[nH]c2-c2ccc(Cl)cc2)cc(OC)c1OC    23.4
Cc1cc(C)c(-c2c(N)cc(Br)cc2Br)c(N)c1    54.6
CC[C@H](C)C(=O)O[C@H]1CCC=C2C=C[C@H](C)[C@H](CC[C@@H]3CC=CC(=O)O3)[C@H]21    83.5
C=C(C)[C@@H]1CC[C@]2(N=C=O)CC[C@]3(C)[C@H](CC[C@@H]4[C@@]5(C)Cc6c([nH]c7ccccc67)C(C)(C)[C@@H]5CC[C@]43C)[C@@H]12    62.4
Cc1cccc2c1S/C(=C/c1ccc([N+](=O)[O-])cc1)C2=O    85
